study-target: Macrophage metalloelastase (Homo sapiens)
Sequence (P39900 106-470 limits assumed): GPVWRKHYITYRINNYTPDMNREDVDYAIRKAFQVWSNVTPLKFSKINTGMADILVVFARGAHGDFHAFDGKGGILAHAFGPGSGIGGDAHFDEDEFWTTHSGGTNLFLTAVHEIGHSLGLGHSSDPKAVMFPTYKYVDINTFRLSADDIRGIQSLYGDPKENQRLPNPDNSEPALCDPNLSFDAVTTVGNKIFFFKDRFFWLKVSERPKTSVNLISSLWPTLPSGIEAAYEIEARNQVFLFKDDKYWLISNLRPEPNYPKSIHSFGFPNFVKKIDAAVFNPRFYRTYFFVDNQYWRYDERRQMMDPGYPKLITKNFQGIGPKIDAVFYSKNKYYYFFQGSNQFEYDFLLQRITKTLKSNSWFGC
method-description: Inhibition of MMP12 at 500 uM
outcome-measure: inhibition (%)

These recorded examples may help you get a feel for the data.
> print(dat)
                                   compound                              study.target  readout.number
1                        COc1ccc2nc[nH]c2c1  Macrophage metalloelastase (Homo sapiens)              25
2  O=C1NC(=O)C(c2ccccc2)N1 (stereo not given)  Macrophage metalloelastase (Homo sapiens)             100

(a) Cc1nc(-c2ccc3c(c2)CCC(=O)N3)cs1
(b) Cc1ccc2c(c1)NC(=O)CO2
(c) Cn1cc2c(n1)-c1cc(Cl)ccc1SC2
I would appreciate it if you could sort these 3 compounds by inhibition, starting from the smallest number. Answer format: the labels, in the requested order.
a, c, b
